Where do these numbers come from? They come from patent US20240228488A1.

// values below are reported pEC50
- Target or system: human activated kallikrein enzyme (Homo sapiens, UniProt P03952)
- Sequence (P03952 391-638 limits assumed): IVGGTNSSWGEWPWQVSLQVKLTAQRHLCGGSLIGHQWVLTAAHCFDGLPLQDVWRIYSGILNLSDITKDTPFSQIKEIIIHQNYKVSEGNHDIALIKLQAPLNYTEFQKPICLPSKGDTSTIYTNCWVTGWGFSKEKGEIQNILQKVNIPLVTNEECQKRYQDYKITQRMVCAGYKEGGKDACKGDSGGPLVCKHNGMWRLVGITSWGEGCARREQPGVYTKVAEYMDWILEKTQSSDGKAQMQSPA
- Sequence (P03952 20-390 partner limits assumed): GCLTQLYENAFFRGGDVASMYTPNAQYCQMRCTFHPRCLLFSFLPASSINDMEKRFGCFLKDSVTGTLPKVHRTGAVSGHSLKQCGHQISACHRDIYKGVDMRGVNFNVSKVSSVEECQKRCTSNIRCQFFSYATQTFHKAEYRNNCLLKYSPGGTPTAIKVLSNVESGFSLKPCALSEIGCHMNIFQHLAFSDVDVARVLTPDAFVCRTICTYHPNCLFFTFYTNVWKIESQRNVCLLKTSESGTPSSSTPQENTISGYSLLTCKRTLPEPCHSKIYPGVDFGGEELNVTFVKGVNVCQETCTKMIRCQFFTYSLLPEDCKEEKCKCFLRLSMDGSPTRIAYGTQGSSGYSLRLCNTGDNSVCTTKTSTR
- Assay overview: Plasma kallikrein inhibition, fluorogenic PFR-AMC substrate, 500 pM activated kallikrein format
- Format: biochemical
- Setup conditions: 500 pM activated kallikrein, 300 uM PFR-AMC, 30 min preincubation, 10 min reaction; read-out: Primary Dose Response Assay: Average EC50
pEC50: −log10 of the molar value.
Parameter measured: pEC50

In [3]: df
Out[3]:
                                   molecule        result
0  Cc1ccnc([C@H]2C[C@@H]2C(=O)Nc2cc(NCc3cn4cc(C5CC5)cc(N5CC(=O)N(C)C5=O)c4n3)cc(C(F)(F)F)n2)n1 (racemic)        > 9.00
1  O=C(Nc1cc(NCc2cn3cc(C4CC4)ccc3n2)ncn1)[C@H]1C[C@@H]1c1cccc(Br)c1 (racemic)  7.00 to 8.00
2  Cc1ccnc([C@H]2C[C@]2(F)C(=O)Nc2cc(N[C@H](C)c3cn4cc(C5CC5)cc(N5CC(=O)N(C)C5=O)c4n3)nc(C)n2)n1 (racemic)  8.00 to 9.00
3  Nc1cc(Cl)cc([C@H]2C[C@@H]2C(=O)Nc2cc(NCc3cn4cc(C5CC5)ccc4n3)ncn2)c1 (racemic) [Example I-256]  7.00 to 8.00
4  Cc1ccnc([C@H]2C[C@@H]2C(=O)Nc2cc(NCc3cn4cc(C5CC5)cc(N5CC(=O)N(C)C5=O)c4n3)n3ncnc3n2)n1 (racemic)        > 9.00
5  O=C(Nc1cc(NCc2cn3cc(C4CC4)ccc3n2)ncn1)[C@H]1C[C@@H]1c1cc(Cl)ccc1-n1cnnn1 (racemic)  8.00 to 9.00
6  Cc1ccnc([C@H]2C[C@@H]2C(=O)Nc2cc(NCc3cn4cc(C5CC5)cc(S(C)(=O)=O)c4n3)ncn2)n1 (racemic) [Example 322]        > 9.00
7  CC(C)c1ccc2nc(CNc3ccnc(NC(=O)[C@H]4C[C@@H]4c4cccc(Cl)c4)c3)cn2c1        > 9.00

* * *

- Target or system: plasma kallikrein (Homo sapiens, UniProt P03952)
- Construct: from tissue
- Sequence (P03952 391-638 limits assumed): as the sequence (P03952 391-638 limits assumed) above
- Sequence (P03952 20-390 partner limits assumed): as the sequence (P03952 20-390 partner limits assumed) above
- Assay overview: Neat human plasma assay, FXIIa contact pathway-activated, PFR-AMC substrate
- Format: biochemical
- Setup conditions: citrated human plasma 78% final, 10 nM human FXIIa, 100 μM PFR-AMC; read-out: Human Plasma Assay: IC90
// values below are reported IC90
Parameter measured: IC90

                                   compound            result
0  O=C(Nc1cc(NCc2cn3cc(C4CC4)cc(N4CCNCC4)c3n2)ncn1)[C@H]1C[C@@H]1c1cccc(Cl)c1 [Example 307]          < 400 nM
1  Cc1ccnc([C@H]2C[C@@H]2C(=O)Nc2cc(NCc3cn4cc(C5CC5)cc(N5CCCC5=O)c4n3)ncn2)n1 [Example 377]    400 to 1500 nM
2  Cc1ccnc([C@H]2C[C@@H]2C(=O)Nc2cc(NCc3cn4cc(C5CC5)cc(N5C(=O)N(C)C(=O)C56CC6)c4n3)nc(C)n2)n1 [Example 357]          < 400 nM
3  CC(=O)N(C)c1cc(C2CC2)cn2cc(CNc3cc(NC(=O)[C@H]4C[C@@H]4c4cccc(Cl)c4)ncn3)nc12 [Example 274]  1500 to 10000 nM
